Parameter kinase still bound, per cent of control: see the listing below.
Target: TEK (human) (UniProt Q02763)
Sequence (Q02763 whole entry, looked up): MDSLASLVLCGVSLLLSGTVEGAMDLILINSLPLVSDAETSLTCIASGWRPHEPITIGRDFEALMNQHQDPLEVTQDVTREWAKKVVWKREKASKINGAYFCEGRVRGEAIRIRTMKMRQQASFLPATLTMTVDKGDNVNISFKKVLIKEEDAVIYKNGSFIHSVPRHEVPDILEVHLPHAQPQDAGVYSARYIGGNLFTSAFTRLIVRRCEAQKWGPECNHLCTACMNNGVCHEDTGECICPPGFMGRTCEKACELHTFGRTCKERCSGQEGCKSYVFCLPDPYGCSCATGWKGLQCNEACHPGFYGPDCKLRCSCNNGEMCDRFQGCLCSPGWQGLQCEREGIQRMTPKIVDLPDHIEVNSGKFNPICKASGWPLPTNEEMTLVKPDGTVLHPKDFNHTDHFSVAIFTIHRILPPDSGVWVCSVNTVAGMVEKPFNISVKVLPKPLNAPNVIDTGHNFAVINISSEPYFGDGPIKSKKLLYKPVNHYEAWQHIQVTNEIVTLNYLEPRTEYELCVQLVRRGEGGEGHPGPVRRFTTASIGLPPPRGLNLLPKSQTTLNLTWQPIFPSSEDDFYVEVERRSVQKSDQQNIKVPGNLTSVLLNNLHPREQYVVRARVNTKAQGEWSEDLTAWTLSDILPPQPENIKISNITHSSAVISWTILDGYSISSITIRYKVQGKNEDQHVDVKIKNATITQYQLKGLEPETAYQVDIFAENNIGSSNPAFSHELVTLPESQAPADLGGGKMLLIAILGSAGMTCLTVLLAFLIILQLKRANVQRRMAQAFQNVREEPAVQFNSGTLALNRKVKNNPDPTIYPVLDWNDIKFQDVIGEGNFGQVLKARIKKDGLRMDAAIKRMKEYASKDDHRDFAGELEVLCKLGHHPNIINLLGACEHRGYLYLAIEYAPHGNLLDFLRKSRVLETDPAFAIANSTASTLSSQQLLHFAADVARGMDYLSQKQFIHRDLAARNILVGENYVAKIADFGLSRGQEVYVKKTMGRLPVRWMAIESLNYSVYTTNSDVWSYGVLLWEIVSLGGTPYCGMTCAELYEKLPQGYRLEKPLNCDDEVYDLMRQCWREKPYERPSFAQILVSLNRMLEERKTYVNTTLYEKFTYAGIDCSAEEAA
Assay: KINOMEscan competition binding
Details: compound 10.0 µM
Kindly answer with a numeric value in %, unit omitted.

Below are worked cases with known answers.
>>> print(df.to_string())
                              smiles_string  units_text  readout_number
0  O=C1NC(=O)/C(=C/c2c[nH]c(=O)c(-c3ccc(N4CCNCC4)nc3)c2)S1           %             100
1  CN1C(=O)c2ccccc2N(C)c2nc(Nc3ccc(N4CCC(O)CC4)cc3)ncc21           %              72
2  COc1cc(N2CCN(C)CC2)ccc1Nc1ncc2c(n1)N(C)c1ccccc1N(C)C2=O           %             100

q: Determine from records and report kinase still bound, per cent of control for COc1cc(N2CCN(C)CC2)ccc1Nc1ncc2c(n1)Nc1ccccc1NC2=O
a: 100

q: Determine from records and report kinase still bound, per cent of control for CN1C(=O)c2ccccc2N(C)c2nc(NS(=O)(=O)c3ccc(N)cc3)ncc21
a: 97

q: Determine from records and report kinase still bound, per cent of control for O=C1NC(=O)/C(=C/c2ccc(-c3ccc(F)cc3O)o2)S1
a: 2.1

Origin of measurements: the kinase profiling compilation of Christmann-Franck et al. (2016)
